Target: T1, recombinant human lymphotoxin-α (LTα), homotrimer LTα3 (human, UniProt P01374 35-205)
T1 construct: One molecule is used for 'LTα' (plate ELISA), 'rhLTα' (BIACORE, phage ELISA) and 'human LTα3'; also called human LTα3; rhLTα
T1 sequence (looked up): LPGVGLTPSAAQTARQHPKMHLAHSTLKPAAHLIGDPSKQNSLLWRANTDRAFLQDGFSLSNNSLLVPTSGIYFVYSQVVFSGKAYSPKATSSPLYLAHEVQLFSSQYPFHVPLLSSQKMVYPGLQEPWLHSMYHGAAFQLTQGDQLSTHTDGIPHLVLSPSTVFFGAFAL
Test: plate-based ELISA on human LTα, ratio to the chimera
Listing of entries alongside the reported ELISA IC50 ratio.
Readout kind: ELISA IC50 ratio

Binder	Recorded result
chimeric anti-LTα antibody 2C8 (murine/human chimera) (antibody, human IgG1, kappa, V domains shown, also called 2C8 chimera; 2C8.chimera) VH: EVQLQQSGPELVKPGASVKLSCKASGYTFTSYVIHWVKQKPGQGLEWIGYNNPYNDGTNYNEKFKGKATLTSDKSSSTAYMELSSLTSEDSAVYYCSRPTMLPWFAYWGQGTTLTVSA VL: DIVMTQSHKFMSTSVGDRVSITCKASQAVSSAVAWYQQKPGQSPKLQIYSASHRYTGVPDRFTGSGSGTDFTFTISSVQAEDLAVYYCQQHYSTPWTFGGGTKVEIKR	1
humanized 2C8.v2 (antibody, IgG1, V domains shown, also called Version 2; wild-type 2C8.v2) VH: EVQLVESGGGLVQPGGSLRLSCAASGYTFTSYVIHWVRQAPGKGLEWVGYNNPYNDGTNYNEKFKGRATISSDKSKNTAYLQMNSLRAEDTAVYYCSRPTMLPWFAYWGQGTLVTVSS VL: DIQMTQSPSSLSASVGDRVTITCRASQAVSSAVAWYQQKPGKAPKLQIYSASHRYTGVPSRFSGSGSGTDFTLTISSLQPEDFATYYCQQHYSTPWTFGQGTKVEIKR	1.7
